- Test system: MOLT-4 leukemia
- experimentSummary: NCI-60 one-dose screen, 48 h
- testConditions: 10 µM unless noted
Compounds without any hit were thinned out: in the full panel of roughly 83,000, 20% have a hit. Activity calls are given as the source filed them. How the source made its calls: active means growth percent below 10; inactive means the rest.
Parameter call: string, one of active, inactive

COC(=O)N[C@H]1CCc2c(Cl)c(OC)c(OC)c(OC)c2-c2ccc(SC)c(=O)cc21; active
c1ccc(-c2cn3c(ccc4ccccc43)n2)cc1; inactive

What classification did `COc1ccc(C(C)=O)c(OC)c1` end up with in this test?
inactive

Outcome? `O=C(CNCCN1CCOCC1)N1c2cccc3cccc(c23)N(C(=O)CNCCN2CCOCC2)C1c1cn(-c2ccccc2)nc1-c1cccc([N+](=O)[O-])c1`
inactive

// param item: `CCN(CC)CCn1c(=O)c2cc(OC)c(OC)cc2c2ccc3cc4c(cc3c21)OCO4` ; yields the recorded call
active

----------
- Test system: SF-295 CNS
- experimentSummary: NCI-60 one-dose screen, 48 h
- testConditions: 10 µM unless noted
- Protocol: Cells are grown in 96 well plates and exposed to the test compound for 48 hours. Compounds are tested at a single concentration, which is 10^-5 M for most compounds. The reported endpoint is percent growth (GI% or GIPRCNT), where numbers from 0 - 100% represent growth inhibition, and numbers from -100% - 0 represent cell death. For example, a value of 40 represents 60% growth inhibition. A value of 0 means no net growth occurred over the course of the experiment. […]
About 83,000 compounds went through this panel and 20% of them were active in at least one assay; those are over-represented in the sample as a whole. Activity calls are given as the source filed them. Rule for the calls: active = growth percent below 10; inactive = the rest.
Outcome field: choose from class 1 for active, class 0 for inactive

COc1ccc(OC)c(-c2cc(-c3ccc(Cl)cc3)c3c(N)c(C(=O)c4ccc(Cl)cc4)sc3n2)c1; class 0

Any idea what this test logged for `O=S(=O)(NCCNc1nccc(-c2c(-c3cccc(O)c3)nc3occn23)n1)c1ccc(C(F)(F)F)cc1` ?
class 0

Returns: the outcome recorded for `O=C1Nc2ccc(F)cc2/C1=C\c1c(-c2ccccc2)nc2ccccn12` in this assay.
class 0

# outcome recorded in this test, key = `Cc1nnc2c(Cc3ccccc3)nc3ccccc3n12`
class 0

Hey, what did the test say about `O=C(/C=C/c1c(-c2ccc(Cl)cc2)nn(-c2ccccc2)c1C(F)(F)F)c1ccc(Cl)cc1` ?
class 0

What call does the record list for `Cc1ccc(NS(=O)(=O)c2ccc(-c3cnc(C4CC4)o3)cc2)cc1C(F)(F)F` ?
class 0

----------
- System: OVCAR-5 ovarian
- experimentSummary: NCI-60 one-dose screen, 48 h (100 = growth as untreated, 0 = no growth, -100 = all killed)
- testConditions: 10 µM unless noted
- Experimental: Growth inhibition of the OVCAR-5 human tumor cell line is measured as a screen for anti-cancer activity. Cells are grown in 96 well plates and exposed to the test compound for 48 hours. Compounds are tested at a single concentration, which is 10^-5 M for most compounds. The reported endpoint is percent growth (GI% or GIPRCNT), where numbers from 0 - 100% represent growth inhibition, and numbers from -100% - 0 represent cell death. For example, a value of 40 represents 60% growth inhibition. […]
About 83,000 compounds went through this panel and 20% of them were active in at least one assay; those are over-represented in the sample as a whole.
reportedEndpoint: growth (%)
Numbers only, in %.

A selection of reference data follows.
CC(C)(C)[Si](C)(C)OC1[C@@H](O[Si](C)(C)C(C)(C)C)[C@@H](CNC(=O)NC(=O)CCl)O[C@H]1n1cnc2c(NC(=O)Nc3ccccc3)ncnc21 (stereo partly specified); 5.37
O=C(CSc1nc2sc3c(c2c(=O)n1-c1ccc(Cl)cc1)CCCC3)Nc1nc(-c2cccc(Br)c2)cs1; 75.7
C/C=C(\C)C(=O)NC1=CC[C@@]2(C)C(=CCC3C2CC[C@@]2(C)C3CC[C@@H]2C(C)N(C)C)C1=O (stereo partly specified); 85.8
COc1cc(NC(=O)CSc2nc3ccc(C)cc3c(=O)n2Cc2ccccc2)cc(OC)c1OC; 96.3
C=C(C)[C@@H]1CC[C@]2(C(=O)N3CCN(C)CC3)CC[C@]3(C)[C@H](CC[C@@H]4[C@@]5(C)C/C(=C/c6ccncc6)C(=O)C(C)(C)[C@@H]5CC[C@]43C)[C@@H]12; 88.8
O=C(NNc1nc2c(F)cccc2n2cccc12)c1cnccn1; 39

Parameters: items (list). Returns: growth for each item.
1. CC1(C)CC(O)CCCCCCOc2c(CN)cccc2NC(=O)c2nc(cnc2N)-c2ccc(cc2)S1(=O)=O (stereo unspecified)
2. O=C1c2cccc3c(-c4ccc5c(c4)ncn5C4CCCCC4)ccc(c23)C(=O)N1CCO
3. Cn1ccnc1C(=O)/C=C/c1ccc(CC(=O)Nc2ccc(F)cc2)cc1
4. O=S(=O)(NCCCNc1nccc(-c2c(-c3cccc(O)c3)nc3occn23)n1)c1ccc(Cl)cc1
5. COc1cc2c(c(O)c1Br)C(=O)c1c(O)cc(C[C@H](C)O)cc1[C@H]2[C@H]1c2cc(C[C@H](C)O)cc(O)c2C(=O)c2c1cc(OC)c(Br)c2O
6. Fc1ccc2c(-c3cncn3CCc3ccccc3)c[nH]c2c1

1: 68.4; 2: 110; 3: 65.5; 4: 130; 5: 0.764; 6: 92.9

Record growth for all entries; do not skip any.
1. Cc1c(C(=O)NCCC(=O)NO)sc2ncnc(Nc3ccc(NC(=O)Nc4cccc(C(F)(F)F)c4)cc3)c12
2. N#CC(C(=O)/C(=N/NC(=O)c1ccccc1O)C(C#N)c1ccccc1)c1ccccc1 (stereo unspecified)

[104, 91.2]

List growth for every entry below, keeping the order given.
1. O=C(CCN1CCCC1)Nc1ccc2c(Nc3ccc(Br)cc3)c3ccccc3nc2c1
2. CC1(C)CC[C@]2(C(=O)O)CC[C@]3(C)C(=CC[C@@H]4[C@@]5(C)Cc6c([nH]c7ccccc67)C(C)(C)[C@@H]5CC[C@]43C)[C@@H]2C1

1. 41.9
2. 80.9

----------
- System: UACC-62 melanoma
- experimentSummary: NCI-60 one-dose screen, 48 h
- testConditions: 10 µM unless noted
Compounds without any hit were thinned out: in the full panel of roughly 83,000, 20% have a hit. Activity calls are given as the source filed them. How the source made its calls: active means growth percent below 10; inactive means the rest.
Pick one: active, inactive

NS(=O)(=O)c1ccc(Cn2c(SCC(=O)N/N=C/c3ccccc3O)nc3ccccc3c2=O)cc1; inactive
Cc1nn(-c2ccccc2)c(Cl)c1/C=C/C(=O)c1ccc(F)cc1; inactive
COc1ccc(C/C(C)=C(/c2ccc(OCCCN(C)C)cc2)c2ccc(OC(C)=O)cc2)cc1; inactive
COc1ccc2c(c1)C(=O)CC(c1ccccc1OC)O2 (configuration not stated); inactive
CN(C)CCn1c2ccc(Br)cc2c2nc3ccccc3nc21; inactive
C#CCNC(=O)c1cccc2c1cc(C)n2-c1nc2c(c(NCc3ccccc3)n1)CCCC2; active
COc1ccc(/C=C(\C#N)n2nc3cccc(F)c3n2)cc1; inactive
COc1ccc(C(=O)/C=C/c2cc3ccccc3n3nnnc23)cc1; inactive

What call does the record list for `CC(=O)Nc1ccc(-c2ccc3c(c2)NC(=O)/C3=C\c2ccc[nH]2)cc1` ?
inactive

Hello, I am checking results. What call was entered for `Cc1cc2nc3c4cc(C=O)ccc4n(CCN(C)C)c3nc2cc1C` ?
inactive

What did this assay record as the result for `Cn1c(-c2c(N)n(CCCN3CCOCC3)c3nc(C#N)c(C#N)nc23)nc2ccccc21` ?
inactive

----------
- Tested on: MALME-3M melanoma
- experimentSummary: NCI-60 one-dose screen, 48 h (100 = growth as untreated, 0 = no growth, -100 = all killed)
- testConditions: 10 µM unless noted
This is part of a sample that, as a whole, favours compounds with a hit. Of some 83,000 tested, about 20% had one in any assay.
So basically, the class depends on measured growth, and the ranges are low band = under 40%, middle band = from 40% up to 90%, high band = 90% and over

Consider the following illustrative entries.
COc1ccc(C/C(C)=C(/c2ccc(OCCCN(C)C)cc2)c2ccc(OC(C)=O)cc2)cc1; middle band
CCCCCN1C=C/C(=C\C(=O)N2CCCc3ccccc32)c2ccccc21; middle band
Cc1nnc2c(Cc3ccccc3)nc3ccccc3n12; high band
COc1cccc(-c2cc(C(=O)Nc3ccc(/C=C/c4ccc(OC5CCN(C)CC5)cc4)cc3)ccc2OC)c1; middle band
C=C1C(=O)O[C@H]2[C@H]1CC/C(COC(=O)NCc1c[nH]c3ccc(F)cc13)=C\CC[C@@]1(C)O[C@@H]21; low band

State the class of the compound shown: O=C(c1nc2ccccc2[nH]1)C1C(c2ccc(Cl)cc2)C2CC3CCCC[C@H]3N2[C@@]12C(=O)Nc1cc(Cl)ccc12 (some centres undefined)
middle band

Place this compound in its band: `Cc1cc2nc3c4cc(C=O)ccc4n(CCN(C)C)c3nc2cc1C`
low band

Determine which band this compound sits in: `CC/C(=C\c1ccc(OC)cc1)C(=O)c1ccc(OC)cc1`
high band
